- Tested on: Liver
- experimental_protocol: Cmax in Sprague-Dawley rat liver assessed as 2'-C-methyl guanosine triphosphate level at 10 mg/kg, po up to 24 hrs by LC-MS/Ms analysis
- Type: ADME, organism-based
- Set-up: dose 10 mg/kg, route oral
- protocol_conditions: in vivo
Entries annotated with measured Cmax
Give a bare numeral; the unit ng/g is implied.

Use the examples below as a reference point.
[
  {
    "molecule": "CCC(C)OC(=O)[C@H](C)NP(=O)(N[C@@H](C)C(=O)OC(C)CC)OC[C@H]1O[C@@H](n2cnc3c(OC)nc(N)nc32)[C@](C)(O)[C@@H]1O (mixture of isomers)",
    "Cmax (ng/g)": 907.7
  },
  {
    "molecule": "COc1nc(N)nc2c1ncn2[C@@H]1O[C@H](COP(=O)(N[C@@H](C)C(=O)OC2CCCC2)N[C@@H](C)C(=O)OC2CCCC2)[C@@H](O)[C@@]1(C)O (mixture of isomers)",
    "Cmax (ng/g)": 1523.3
  },
  {
    "molecule": "CCCCCOC(=O)[C@H](C)NP(=O)(N[C@@H](C)C(=O)OCCCCC)OC[C@H]1O[C@@H](n2cnc3c(OC)nc(N)nc32)[C@](C)(O)[C@@H]1O (mixture of isomers)",
    "Cmax (ng/g)": 1042.3
  },
  {
    "molecule": "COc1nc(N)nc2c1ncn2[C@@H]1O[C@H](COP(=O)(N[C@H](C(=O)OCc2ccccc2)C(C)C)N[C@H](C(=O)OCc2ccccc2)C(C)C)[C@@H](O)[C@@]1(C)O (mixture of isomers)",
    "Cmax (ng/g)": 359.5
  },
  {
    "molecule": "COc1nc(N)nc2c1ncn2[C@@H]1O[C@H](COP(=O)(N[C@@H](C)C(=O)OC2Cc3ccccc3C2)N[C@@H](C)C(=O)OC2Cc3ccccc3C2)[C@@H](O)[C@@]1(C)O (mixture of isomers)",
    "Cmax (ng/g)": 632
  }
]

Lookup: What Cmax value was documented for this molecule, COc1nc(N)nc2c1ncn2[C@@H]1O[C@H](COP(=O)(N[C@@H](C)C(=O)OCC(C)(C)C)Oc2cccc3ccccc23)[C@@H](O)[C@@]1(C)O (some centres undefined) ?
Found: 1446.7

Lookup: What Cmax value was documented for this molecule, CCCCOC(=O)[C@H](C)NP(=O)(N[C@@H](C)C(=O)OCCCC)OC[C@H]1O[C@@H](n2cnc3c(OC)nc(N)nc32)[C@](C)(O)[C@@H]1O (mixture of isomers) ?
Found: 1553.3

Lookup: What Cmax value was documented for this molecule, COc1nc(N)nc2c1ncn2[C@@H]1O[C@H](COP(=O)(N[C@H](C)C(=O)OCC(C)(C)C)N[C@H](C)C(=O)OCC(C)(C)C)[C@@H](O)[C@@]1(C)O (mixture of isomers) ?
Found: 598.3

Lookup: What Cmax value was documented for this molecule, COc1nc(N)nc2c1ncn2[C@@H]1O[C@H](COP(=O)(N[C@@H](C)C(=O)OCC(C)(C)C)N[C@@H](C)C(=O)OCC(C)(C)C)[C@@H](O)[C@@]1(C)O (mixture of isomers) ?
Found: 1580
